- protocol: Solubility of representative compounds in various solvent systems
- Format: physicochemical
- conditions_used: +4% sls
Recorded log10(solubility) values for a group of compounds are listed next.
observation_type: log10(solubility) (log10 of the value in µg/mL)

- compound: "CCCCCCCCCCS(=O)(=O)c1ccc(O)c(C(=O)Nc2cccc(C(F)(F)F)c2)c1 [TMF-10]"
  experimental_value: 3.32
- compound: "CCCCCCCCCCS(=O)(=O)c1ccc(O)c(C(=O)Nc2cccc(C#N)c2)c1 [TMC-10]"
  experimental_value: 3.90
- compound: "CCCCCCCCCCCCS(=O)(=O)c1ccc(O)c(C(=O)Nc2cccc(C(F)(F)F)c2)c1 [TMF-12]"
  experimental_value: 3.76
- compound: "CCCCCCCC(=O)c1ccc(O)c(C(=O)Nc2cccc(C(F)(F)F)c2)c1 [Salifluor, reference compound]"
  experimental_value: 2.58
- compound: "CCCCCCCCCCS(=O)(=O)c1ccc(O)c(C(=O)Nc2ccc(C#N)cc2)c1 [TPC-10]"
  experimental_value: 3.26

----------
- protocol: Solubility of representative compounds in various solvent systems
- Format: physicochemical
- conditions_used: +1% sls
Recorded solubility values for a group of compounds are listed next.

- compound: "CCCCCCCC(=O)c1ccc(O)c(C(=O)Nc2cccc(C(F)(F)F)c2)c1 [Salifluor, reference compound]"
  solubility: "0.23 mg/mL"
- compound: "CCCCCCCCCCS(=O)(=O)c1ccc(O)c(C(=O)Nc2cccc(C#N)c2)c1"
  solubility: "4.27 mg/mL"
- compound: "CCCCCCCCCCCCS(=O)(=O)c1ccc(O)c(C(=O)Nc2cccc(C(F)(F)F)c2)c1"
  solubility: "1.66 mg/mL"
- compound: "CCCCCCCCCCS(=O)(=O)c1ccc(O)c(C(=O)Nc2ccc(C#N)cc2)c1"
  solubility: "0.69 mg/mL"
- compound: "CCCCCCCCCCS(=O)(=O)c1ccc(O)c(C(=O)Nc2cccc(C(F)(F)F)c2)c1"
  solubility: "0.92 mg/mL"

----------
- protocol: Solubility of representative compounds in various solvent systems
- Assay type: physicochemical
- conditions_used: +3.0% tween 80

- compound: "CCCCCCCCCCS(=O)(=O)c1ccc(O)c(C(=O)Nc2cccc(C#N)c2)c1 [TMC-10]"
  solubility / µg/mL: 4690
- compound: "CCCCCCCCCCS(=O)(=O)c1ccc(O)c(C(=O)Nc2cccc(C(F)(F)F)c2)c1 [TMF-10]"
  solubility / µg/mL: 4130
- compound: "CCCCCCCCCCCCS(=O)(=O)c1ccc(O)c(C(=O)Nc2cccc(C(F)(F)F)c2)c1 [TMF-12]"
  solubility / µg/mL: 8340

----------
Recorded solubility values for a group of compounds are listed next.
- protocol: Solubility of representative compounds in various solvent systems
- Assay type: physicochemical
- conditions_used: organic solvent or mixture; Ethanol @ 19° C.

- compound: "CCCCCCCCCCS(=O)(=O)c1ccc(O)c(C(=O)Nc2cccc(C(F)(F)F)c2)c1"
  endpoint_unit: "mg/mL"
  solubility: 44.7
- compound: "CCCCCCCCCCS(=O)(=O)c1ccc(O)c(C(=O)Nc2cccc(C#N)c2)c1"
  endpoint_unit: "mg/mL"
  solubility: 36.7
- compound: "CCCCCCCC(=O)c1ccc(O)c(C(=O)Nc2cccc(C(F)(F)F)c2)c1 [Salifluor, reference compound]"
  endpoint_unit: "mg/mL"
  solubility: 13
- compound: "CCCCCCCCCCS(=O)(=O)c1ccc(O)c(C(=O)Nc2ccc(C#N)cc2)c1"
  endpoint_unit: "mg/mL"
  solubility: 11.5

----------
Recorded solubility values for a group of molecules are listed next.
- protocol: Solubility of representative compounds in various solvent systems
- Assay type: physicochemical
- conditions_used: +0.5% tween 80

- smiles_string: "CCCCCCCCCCCCS(=O)(=O)c1ccc(O)c(C(=O)Nc2cccc(C(F)(F)F)c2)c1"
  solubility [µg/mL]: 1340
- smiles_string: "CCCCCCCCCCS(=O)(=O)c1ccc(O)c(C(=O)Nc2cccc(C#N)c2)c1"
  solubility [µg/mL]: 770
- smiles_string: "CCCCCCCCCCS(=O)(=O)c1ccc(O)c(C(=O)Nc2cccc(C(F)(F)F)c2)c1"
  solubility [µg/mL]: 760

----------
Recorded solubility values for a group of compounds are listed next.
- protocol: Solubility of representative compounds in various solvent systems
- Type: physicochemical
- conditions_used: +2% SLS + 0.5% Tween 80
- Description: The solubility of representative compounds of this invention in various solvent systems was determined. The solvents included ethanol, propylene glycol, SLS, Tween 80™ and combinations thereof.

- smiles_string: "CCCCCCCCCCCCS(=O)(=O)c1ccc(O)c(C(=O)Nc2cccc(C(F)(F)F)c2)c1"
  endpoint_unit: "µg/mL"
  solubility: 3540
- smiles_string: "CCCCCCCCCCS(=O)(=O)c1ccc(O)c(C(=O)Nc2cccc(C#N)c2)c1"
  endpoint_unit: "µg/mL"
  solubility: 3980
- smiles_string: "CCCCCCCCCCS(=O)(=O)c1ccc(O)c(C(=O)Nc2cccc(C(F)(F)F)c2)c1"
  endpoint_unit: "µg/mL"
  solubility: 1350

----------
- protocol: Solubility of representative compounds in various solvent systems
- Format: physicochemical
- conditions_used: aqueous buffer; pH 10 Na-buffer @ 22° C.
Recorded solubility values for a group of compounds are listed next.

- compound: "CCCCCCCCCCS(=O)(=O)c1ccc(O)c(C(=O)Nc2ccc(C#N)cc2)c1"
  solubility: "9.16 µg/mL"
- compound: "CCCCCCCCCCS(=O)(=O)c1ccc(O)c(C(=O)Nc2cccc(C(F)(F)F)c2)c1"
  solubility: "1.89 µg/mL"
- compound: "CCCCCCCCCCCCS(=O)(=O)c1ccc(O)c(C(=O)Nc2cccc(C(F)(F)F)c2)c1"
  solubility: "< 0.1 µg/mL"
- compound: "CCCCCCCCCCS(=O)(=O)c1ccc(O)c(C(=O)Nc2cccc(C#N)c2)c1"
  solubility: "7.2 µg/mL"
- compound: "CCCCCCCC(=O)c1ccc(O)c(C(=O)Nc2cccc(C(F)(F)F)c2)c1 [Salifluor, reference compound]"
  solubility: "3.91 µg/mL"

----------
Recorded solubility values for a group of compounds are listed next.
- protocol: Solubility of representative compounds in various solvent systems
- Format: physicochemical
- conditions_used: aqueous buffer; pH 10 K-buffer @ 35° C.
observation_type: solubility (µg/mL)

- compound: "CCCCCCCCCCS(=O)(=O)c1ccc(O)c(C(=O)Nc2cccc(C(F)(F)F)c2)c1"
  observation_type: "solubility"
  endpoint_unit: "µg/mL"
  cmp: "<"
  experimental_value: 0.1
- compound: "CCCCCCCCCCS(=O)(=O)c1ccc(O)c(C(=O)Nc2cccc(C#N)c2)c1"
  observation_type: "solubility"
  endpoint_unit: "µg/mL"
  cmp: "="
  experimental_value: 5.58
- compound: "CCCCCCCC(=O)c1ccc(O)c(C(=O)Nc2cccc(C(F)(F)F)c2)c1 [Salifluor, reference compound]"
  observation_type: "solubility"
  endpoint_unit: "µg/mL"
  cmp: "="
  experimental_value: 1.14
- compound: "CCCCCCCCCCS(=O)(=O)c1ccc(O)c(C(=O)Nc2ccc(C#N)cc2)c1"
  observation_type: "solubility"
  endpoint_unit: "µg/mL"
  cmp: "="
  experimental_value: 3.45

----------
- protocol: Solubility of representative compounds in various solvent systems
- Type: physicochemical
- conditions_used: ph 10 na-buffer +0.5% sls; pH 10 Na-buffer @ 22° C. +0.5% SLS

- smiles_string: "CCCCCCCCCCS(=O)(=O)c1ccc(O)c(C(=O)Nc2ccc(C#N)cc2)c1"
  solubility (µg/mL): 300
- smiles_string: "CCCCCCCCCCS(=O)(=O)c1ccc(O)c(C(=O)Nc2cccc(C#N)c2)c1"
  solubility (µg/mL): 3130
- smiles_string: "CCCCCCCCCCCCS(=O)(=O)c1ccc(O)c(C(=O)Nc2cccc(C(F)(F)F)c2)c1"
  solubility (µg/mL): 1280
- smiles_string: "CCCCCCCCCCS(=O)(=O)c1ccc(O)c(C(=O)Nc2cccc(C(F)(F)F)c2)c1"
  solubility (µg/mL): 370

----------
- protocol: Solubility of representative compounds in various solvent systems
- Format: physicochemical
- conditions_used: +2% sls
Recorded log10 solubility values for a group of compounds are listed next.
observation_type: log10 solubility (log10 of the value in µg/mL)

- compound: "CCCCCCCCCCCCS(=O)(=O)c1ccc(O)c(C(=O)Nc2cccc(C(F)(F)F)c2)c1"
  log10 solubility: 3.47
- compound: "CCCCCCCCCCS(=O)(=O)c1ccc(O)c(C(=O)Nc2ccc(C#N)cc2)c1"
  log10 solubility: 2.96
- compound: "CCCCCCCC(=O)c1ccc(O)c(C(=O)Nc2cccc(C(F)(F)F)c2)c1 [Salifluor, reference compound]"
  log10 solubility: 2.46
- compound: "CCCCCCCCCCS(=O)(=O)c1ccc(O)c(C(=O)Nc2cccc(C(F)(F)F)c2)c1"
  log10 solubility: 3.11
- compound: "CCCCCCCCCCS(=O)(=O)c1ccc(O)c(C(=O)Nc2cccc(C#N)c2)c1"
  log10 solubility: 3.82
